System: 242566-281-R-J2-PDC complex spheroid viability
Assay: Anticancer human tumor 242566-281-R-J2-PDC patient-derived pancreatic carcinoma cell line growth inhibition [CLK]
Details: second compound 10 µM; first compound 0.316 µM; stronger effect = lower value
So I've got a bunch of molecules here, and I need their viability, T/C values.
Kindly provide the numeric value in % only, without the unit symbol.

Assign viability, T/C to the following record: CC(Nc1ccc2c(c1)OCCn1cc(N3C(=O)OCC3C(F)F)nc1-2)C(N)=O (stereo unspecified) + CN1CCN(c2cc(C(=O)Nc3cc4cc(-c5cnn(C)c5)ccc4cn3)ccn2)CC1 1.6

Consider the molecule COC1C=CCC(C)C(C)S(=O)(=O)NC(=O)c2ccc3c(c2)N(CC2CCC21)CC1(CCCc2cc(Cl)ccc21)CO3 (stereo unspecified) + CNC(=O)c1ccc(Nc2nc(OC3CCCC3)c3c(-c4ccc5nc(C)oc5c4)c[nH]c3n2)c(OC)c1 and give its recorded viability, T/C. 30.8

Identify the reported viability, T/C for the following entry. CCCS(=O)(=O)Nc1ccc(F)c(C(=O)c2c[nH]c3ncc(-c4ccc(Cl)cc4)cc23)c1F + CNC(=O)c1ccc(Nc2nc(OC3CCCC3)c3c(-c4ccc5nc(C)oc5c4)c[nH]c3n2)c(OC)c1 53

Name the recorded viability, T/C of the molecule listed here: COc1ccc([C@@H](O)c2cc(-c3ncnc4cc(N5CCOCC5)ccc34)c(F)cc2Cl)nn1 + CNC(=O)c1ccc(Nc2nc(OC3CCCC3)c3c(-c4ccc5nc(C)oc5c4)c[nH]c3n2)c(OC)c1 46.5

Look up and report measured viability, T/C for this entry: Nc1ccccc1NC(=O)c1ccc(CNC(=O)OCc2cccnc2)cc1 + CN1CCN(c2cc(C(=O)Nc3cc4cc(-c5cnn(C)c5)ccc4cn3)ccn2)CC1 1.73

Dear colleague, please send me the reported viability, T/C for Nc1ccn(C2OC(CO)C(O)C2(F)F)c(=O)n1 (stereo unspecified) + CN1CCN(c2cc(C(=O)Nc3cc4cc(-c5cnn(C)c5)ccc4cn3)ccn2)CC1 when you can. 1.12

Give reported viability, T/C value for O=c1[nH]cc(F)c(=O)[nH]1 + CN1CCN(c2cc(C(=O)Nc3cc4cc(-c5cnn(C)c5)ccc4cn3)ccn2)CC1 1.19

Give me measured viability, T/C, please, for this molecule: CCc1c2c(nc3ccc(O)cc13)-c1cc3c(c(=O)n1C2)COC(=O)[C@]3(O)CC + CN1CCN(c2cc(C(=O)Nc3cc4cc(-c5cnn(C)c5)ccc4cn3)ccn2)CC1 0.49

Supply recorded viability, T/C for O=C(c1cc(Cc2n[nH]c(=O)c3ccccc23)ccc1F)N1CCN(C(=O)C2CC2)CC1 + CNC(=O)c1ccc(Nc2nc(OC3CCCC3)c3c(-c4ccc5nc(C)oc5c4)c[nH]c3n2)c(OC)c1 here. 52.7

Give viability, T/C for Nc1ccccc1NC(=O)c1ccc(CNC(=O)OCc2cccnc2)cc1 + CNC(=O)c1ccc(Nc2nc(OC3CCCC3)c3c(-c4ccc5nc(C)oc5c4)c[nH]c3n2)c(OC)c1 48.6

Return reported viability, T/C. Input molecule: COc1cccc2c1C(=O)c1c(O)c3c(c(O)c1C2=O)CC(O)(C(=O)CO)CC3OC1CC(N)C(O)C(C)O1 (stereo unspecified) + CN1CCN(c2cc(C(=O)Nc3cc4cc(-c5cnn(C)c5)ccc4cn3)ccn2)CC1 0.74

====

System: 242566-281-R-J2-PDC complex spheroid viability
Assay: Anticancer human tumor 242566-281-R-J2-PDC cell line growth inhibition [CLK];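 further: spheroids exposed to compounds for 7 days before readout; 100% = DMSO vehicle control wells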
Conditions: second compound 0.316 µM; first compound 0.316 µM; stronger effect = lower value
Would you mind telling me the reported viability, T/C of each entry?
Output spec: scalar in %, unitless text.

Give the measured viability, T/C for CC1(C)CCC(CN2CCN(c3ccc(C(=O)NS(=O)(=O)c4ccc(NCC5CCOCC5)c([N+](=O)[O-])c4)c(Oc4cnc5[nH]ccc5c4)c3)CC2)=C(c2ccc(Cl)cc2)C1 + CN1CCN(c2cc(C(=O)Nc3cc4cc(-c5cnn(C)c5)ccc4cn3)ccn2)CC1 31.9

Output viability, T/C of Nc1ccccc1NC(=O)c1ccc(CNC(=O)OCc2cccnc2)cc1 + CNC(=O)c1ccc(Nc2nc(OC3CCCC3)c3c(-c4ccc5nc(C)oc5c4)c[nH]c3n2)c(OC)c1 85.6

Supply measured viability, T/C of CC(=O)O[C@H]1C(=O)[C@@]2(C)[C@H]([C@H](OC(=O)c3ccccc3)[C@]3(O)C[C@H](OC(=O)[C@H](O)[C@@H](NC(=O)c4ccccc4)c4ccccc4)C(C)=C1C3(C)C)[C@]1(OC(C)=O)CO[C@@H]1C[C@@H]2O + CNC(=O)c1ccc(Nc2nc(OC3CCCC3)c3c(-c4ccc5nc(C)oc5c4)c[nH]c3n2)c(OC)c1 in your reply. 86.2

Read the entry CC1COCCN1c1cc(C2(S(C)(=N)=O)CC2)nc(-c2ccnc3[nH]ccc23)n1 (stereo not given) + CN1CCN(c2cc(C(=O)Nc3cc4cc(-c5cnn(C)c5)ccc4cn3)ccn2)CC1 and write its reported viability, T/C. 31.2

Complete the entry with viability, T/C for C=CC(=O)N1CCN(c2nc(=O)n(-c3c(C)ccnc3C(C)C)c3nc(-c4c(O)cccc4F)c(F)cc23)C(C)C1 (stereo not given) + CN1CCN(c2cc(C(=O)Nc3cc4cc(-c5cnn(C)c5)ccc4cn3)ccn2)CC1 40.8

====

System: 242566-281-R-J2-PDC complex spheroid viability
Assay: Anticancer human tumor 242566-281-R-J2-PDC cell line growth inhibition [CLK];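 further: spheroids exposed to compounds for 7 days before readout; 100% = DMSO vehicle control wells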
Details: second compound 0.316 µM; first compound 0.316 µM; stronger effect = lower value
viability, T/C vs 30%: less than gives y; not less than gives n.

Say whether its viability, T/C is strictly beneath 30%. Entry: COc1cccc2c1C(=O)c1c(O)c3c(c(O)c1C2=O)CC(O)(C(=O)CO)CC3OC1CC(N)C(O)C(C)O1 (stereo not given) + CNC(=O)c1ccc(Nc2nc(OC3CCCC3)c3c(-c4ccc5nc(C)oc5c4)c[nH]c3n2)c(OC)c1 y

I wonder whether CC(=O)O[C@H]1C(=O)[C@@]2(C)[C@H]([C@H](OC(=O)c3ccccc3)[C@]3(O)C[C@H](OC(=O)[C@H](O)[C@@H](NC(=O)c4ccccc4)c4ccccc4)C(C)=C1C3(C)C)[C@]1(OC(C)=O)CO[C@@H]1C[C@@H]2O + CN1CCN(c2cc(C(=O)Nc3cc4cc(-c5cnn(C)c5)ccc4cn3)ccn2)CC1 has viability, T/C below 30%. Can you tell? y

Hello, I'm reviewing records and need to know if viability, T/C of Nc1ccn(C2OC(CO)C(O)C2(F)F)c(=O)n1 (stereo not given) + CNC(=O)c1ccc(Nc2nc(OC3CCCC3)c3c(-c4ccc5nc(C)oc5c4)c[nH]c3n2)c(OC)c1 is below 30%. Could you check? y

Hello, I'm reviewing records and need to know if viability, T/C of COc1ccc([C@@H](O)c2cc(-c3ncnc4cc(N5CCOCC5)ccc34)c(F)cc2Cl)nn1 + CN1CCN(c2cc(C(=O)Nc3cc4cc(-c5cnn(C)c5)ccc4cn3)ccn2)CC1 is below 30%. Could you check? y

Please indicate whether the reported viability, T/C of CCN1CCN(Cc2ccc(Nc3ncc(F)c(-c4cc(F)c5nc(C)n(C(C)C)c5c4)n3)nc2)CC1 + CNC(=O)c1ccc(Nc2nc(OC3CCCC3)c3c(-c4ccc5nc(C)oc5c4)c[nH]c3n2)c(OC)c1 is strictly below 30%. n

Lab note: viability, T/C threshold 30%. Does this compound come in strictly under it? O=C(c1cc(Cc2n[nH]c(=O)c3ccccc23)ccc1F)N1CCN(C(=O)C2CC2)CC1 + CNC(=O)c1ccc(Nc2nc(OC3CCCC3)c3c(-c4ccc5nc(C)oc5c4)c[nH]c3n2)c(OC)c1 n

Check if viability, T/C falls below 30% for COc1cccc2c1C(=O)c1c(O)c3c(c(O)c1C2=O)CC(O)(C(=O)CO)CC3OC1CC(N)C(O)C(C)O1 (stereo not given) + CN1CCN(c2cc(C(=O)Nc3cc4cc(-c5cnn(C)c5)ccc4cn3)ccn2)CC1 . y

Below 30% on viability, T/C? Entry CC(CO)NC(=O)c1cc(-c2ccc(Cl)cc2)nn(-c2cnn(C)c2)c1=O (stereo not given) + CN1CCN(c2cc(C(=O)Nc3cc4cc(-c5cnn(C)c5)ccc4cn3)ccn2)CC1 n

Does the reported viability, T/C of the following compound sit strictly below 30%? C=C(F)C(=O)N1CCN(c2nc(OCC3CCCN3C)nc3c2CCN(c2cccc4cccc(Cl)c24)C3)CC1CC#N (stereo not given) + CNC(=O)c1ccc(Nc2nc(OC3CCCC3)c3c(-c4ccc5nc(C)oc5c4)c[nH]c3n2)c(OC)c1 n

Threshold test, viability, T/C < 30%: O=c1[nH]cc(F)c(=O)[nH]1 + CNC(=O)c1ccc(Nc2nc(OC3CCCC3)c3c(-c4ccc5nc(C)oc5c4)c[nH]c3n2)c(OC)c1 n

Does the reported viability, T/C of the following compound sit strictly below 30%? CC(Nc1ccc2c(c1)OCCn1cc(N3C(=O)OCC3C(F)F)nc1-2)C(N)=O (stereo not given) + CNC(=O)c1ccc(Nc2nc(OC3CCCC3)c3c(-c4ccc5nc(C)oc5c4)c[nH]c3n2)c(OC)c1 n

Determine whether this compound shows viability, T/C lower than 30% (ties excluded): CC(Nc1ccc2c(c1)OCCn1cc(N3C(=O)OCC3C(F)F)nc1-2)C(N)=O (stereo not given) + CN1CCN(c2cc(C(=O)Nc3cc4cc(-c5cnn(C)c5)ccc4cn3)ccn2)CC1 y

Quick check: viability, T/C of COc1ccc([C@@H](O)c2cc(-c3ncnc4cc(N5CCOCC5)ccc34)c(F)cc2Cl)nn1 + CNC(=O)c1ccc(Nc2nc(OC3CCCC3)c3c(-c4ccc5nc(C)oc5c4)c[nH]c3n2)c(OC)c1 under 30%? n

Hi there! Is viability, T/C for CCCS(=O)(=O)Nc1ccc(F)c(C(=O)c2c[nH]c3ncc(-c4ccc(Cl)cc4)cc23)c1F + CNC(=O)c1ccc(Nc2nc(OC3CCCC3)c3c(-c4ccc5nc(C)oc5c4)c[nH]c3n2)c(OC)c1 below 30%, do you know? n

I'd appreciate it if you could check whether CC(CO)NC(=O)c1cc(-c2ccc(Cl)cc2)nn(-c2cnn(C)c2)c1=O (stereo not given) + CNC(=O)c1ccc(Nc2nc(OC3CCCC3)c3c(-c4ccc5nc(C)oc5c4)c[nH]c3n2)c(OC)c1 has viability, T/C smaller than 30%. n

Lab log: compare recorded viability, T/C with 30%; is it strictly lower for COC1C=CCC(C)C(C)S(=O)(=O)NC(=O)c2ccc3c(c2)N(CC2CCC21)CC1(CCCc2cc(Cl)ccc21)CO3 (stereo not given) + CNC(=O)c1ccc(Nc2nc(OC3CCCC3)c3c(-c4ccc5nc(C)oc5c4)c[nH]c3n2)c(OC)c1 ? n

Does this compound meet the criterion viability, T/C < 30%? COc1c(OCCCN2CCOCC2)ccc2c3n(c(=NC(=O)c4cnc(N)nc4)nc12)CCN3 + CN1CCN(c2cc(C(=O)Nc3cc4cc(-c5cnn(C)c5)ccc4cn3)ccn2)CC1 y

In the record for C=C(F)C(=O)N1CCN(c2nc(OCC3CCCN3C)nc3c2CCN(c2cccc4cccc(Cl)c24)C3)CC1CC#N (stereo not given) + CN1CCN(c2cc(C(=O)Nc3cc4cc(-c5cnn(C)c5)ccc4cn3)ccn2)CC1 , is viability, T/C less than 30%? n

Record COc1c(OCCCN2CCOCC2)ccc2c3n(c(=NC(=O)c4cnc(N)nc4)nc12)CCN3 + CNC(=O)c1ccc(Nc2nc(OC3CCCC3)c3c(-c4ccc5nc(C)oc5c4)c[nH]c3n2)c(OC)c1 : is its viability, T/C strictly below 30%? y

Say whether its viability, T/C is strictly beneath 30%. Entry: Nc1ccn(C2OC(CO)C(O)C2(F)F)c(=O)n1 (stereo not given) + CN1CCN(c2cc(C(=O)Nc3cc4cc(-c5cnn(C)c5)ccc4cn3)ccn2)CC1 y
